tested on: A549/ATCC NSCLC; assay: NCI-60 one-dose screen, 48 h (100 = growth as untreated, 0 = no growth, -100 = all killed); settings: 10 µM unless noted
Compounds without any hit were thinned out: in the full panel of roughly 83,000, 20% have a hit. Active and inactive are the calls of the source. How the source made its calls: active means growth percent below 10; inactive means the rest.
The following compounds are shown together with reported growth values.

Some solved cases for reference:
compound | growth
Nc1c(C(=O)Nc2cccc3cnccc23)sc2nc3c(cc12)C(=O)CCC3 | 87.4% (inactive)
CCN(CC)c1ccc(/C=N/NC(=O)CSc2nc3ccccc3c(=O)n2Cc2ccc(S(N)(=O)=O)cc2)c(O)c1 | 29% (inactive)
O=S(=O)(NCCNc1nccc(-c2c(-c3cccc(F)c3)nc3sccn23)n1)c1ccc(Cl)cc1 | 32.1% (inactive)
O=C1Nc2ccc(F)cc2/C1=C\c1c(-c2ccccc2)nc2ccccn12 | 71.7% (inactive)

Note to self: growth recorded for N=C(N)c1ccc(OCCCCCCCCCCOc2ccc(C(=N)N)cc2)cc1 was -85.4% (active)

Note to self: growth recorded for CN(CCN(C)c1ccc(C(=N)N)cc1)c1ccc(C(=N)N)cc1 was 103% (inactive)

Note to self: growth recorded for C#Cc1cccc(NC(=O)c2cccc(NC(=O)CCl)c2)c1 was 1.7% [8.25 µM] (active)

Note to self: growth recorded for N#Cc1c(-c2ccccc2)nc2c(c(-c3ccccc3)nn2-c2ccccc2)c1-c1ccc(O)cc1 was 41.4% (inactive)

Note to self: growth recorded for OCc1cnccc1NCCCOc1ccccc1 was 93.2% (inactive)

Note to self: growth recorded for O=[N+]([O-])CC(c1ccccc1F)c1c[nH]c2ccccc12 (stereo not given) was 70% (inactive)
